The measurements presented in this section are drawn from patent US11478471B2.

experiment: Toxicokinetics in the 28 day dog study of DIO-902 (with racemic ketoconazole group a); settings: male, beagle, plasma, po, 6.5 mg/kg, AUC(0-12), dogs, 6.5 mg/kg oral, day 1, M, n = 2
metric: AUC(0-t) (ng·h/mL)
Give the quantity in ng·h/mL, number only.

# input Recorded AUC(0-t) of CC(=O)N1CCN(c2ccc(OC[C@@H]3CO[C@@](Cn4ccnc4)(c4ccc(Cl)cc4Cl)O3)cc2)CC1 [DIO-902] , please.
# output 12200

----------
Test: Toxicokinetics of racemic ketoconazole in another 28-day dog study (b)
Conditions: female, beagle, dog, plasma, po, 10 mg/kg, Drug concentration in plasma, dogs, study b, powder, 10 mg/kg oral, day 28, F, 12 h
Description: Two groups of three male and three female dogs per group were studied. Toxicokinetic samples were collected on Day 1 and during Weeks 2 and 4. […] For the following Table: *Days of treatment.
metric: concentration at 12 h

# input Recorded concentration at 12 h of CC(=O)N1CCN(c2ccc(OCC3COC(Cn4ccnc4)(c4ccc(Cl)cc4Cl)O3)cc2)CC1 (racemic) [Racemic ketoconazole] , please.
# output < 250 ng/mL

----------
test: Toxicokinetics in the 28 day dog study of DIO-902 (with racemic ketoconazole group a); conditions: male, beagle, plasma, po, 20 mg/kg, Drug concentration in plasma, dogs, 20 mg/kg oral, day 1, M, 4 h
metric: concentration at 4 h (ng/mL)
Give the quantity in ng/mL, number only.

# input Recorded concentration at 4 h of CC(=O)N1CCN(c2ccc(OC[C@@H]3CO[C@@](Cn4ccnc4)(c4ccc(Cl)cc4Cl)O3)cc2)CC1 [DIO-902] , please.
# output 6150

----------
experiment: Toxicokinetics of racemic ketoconazole in another 28-day dog study (b); conditions: female, beagle, dog, plasma, po, 10 mg/kg, Drug concentration in plasma, dogs, study b, powder, 10 mg/kg oral, day 28, F, 4 h
metric: concentration at 4 h
State the result as a value with its unit after it.

# input Recorded concentration at 4 h of CC(=O)N1CCN(c2ccc(OCC3COC(Cn4ccnc4)(c4ccc(Cl)cc4Cl)O3)cc2)CC1 (racemic) [Racemic ketoconazole] , please.
# output 4390 ng/mL

----------
assay: Toxicokinetics in the 28 day dog study of DIO-902 (with racemic ketoconazole group a); conditions: male, beagle, plasma, po, 20 mg/kg, Drug concentration in plasma, dogs, 20 mg/kg oral, day 28, M, 12 h
metric: concentration at 12 h
State the result as a value with its unit after it.

# input Recorded concentration at 12 h of "CC(=O)N1CCN(c2ccc(OC[C@@H]3CO[C@@](Cn4ccnc4)(c4ccc(Cl)cc4Cl)O3)cc2)CC1" , please.
# output 4.25 µg/mL

----------
experiment: Toxicokinetics of racemic ketoconazole in another 28-day dog study (b); conditions: female, beagle, dog, plasma, po, 40 mg/kg, Drug concentration in plasma, dogs, study b, powder, 40 mg/kg oral, day 1, F, 4 h
metric: concentration at 4 h (ng/mL)
Give the quantity in ng/mL, number only.

# input Recorded concentration at 4 h of CC(=O)N1CCN(c2ccc(OCC3COC(Cn4ccnc4)(c4ccc(Cl)cc4Cl)O3)cc2)CC1 (racemic) [Racemic ketoconazole] , please.
# output 3300

----------
test: Toxicokinetics in the 28 day dog study of DIO-902 (with racemic ketoconazole group a); details: female, beagle, plasma, po, 6.5 mg/kg, Drug concentration in plasma, dogs, 6.5 mg/kg oral, day 1, F, 4 h
metric: concentration at 4 h (ng/mL)
Give the quantity in ng/mL, number only.

# input Recorded concentration at 4 h of "CC(=O)N1CCN(c2ccc(OC[C@@H]3CO[C@@](Cn4ccnc4)(c4ccc(Cl)cc4Cl)O3)cc2)CC1" , please.
# output 2320

----------
assay: Toxicokinetics of racemic ketoconazole in another 28-day dog study (b); conditions: male, beagle, dog, plasma, po, 40 mg/kg, Drug concentration in plasma, dogs, study b, powder, 40 mg/kg oral, day 28, M, 12 h
metric: concentration at 12 h (ng/mL)
Give the quantity in ng/mL, number only.

# input Recorded concentration at 12 h of CC(=O)N1CCN(c2ccc(OCC3COC(Cn4ccnc4)(c4ccc(Cl)cc4Cl)O3)cc2)CC1 (racemic) [Racemic ketoconazole] , please.
# output 28300

----------
test: Toxicokinetics in the 28 day dog study of DIO-902 (with racemic ketoconazole group a); settings: male, beagle, plasma, po, 6.5 mg/kg, Drug concentration in plasma, dogs, 6.5 mg/kg oral, day 28, M, 8 h
metric: concentration at 8 h (ng/mL)
Give the quantity in ng/mL, number only.

# input Recorded concentration at 8 h of CC(=O)N1CCN(c2ccc(OC[C@@H]3CO[C@@](Cn4ccnc4)(c4ccc(Cl)cc4Cl)O3)cc2)CC1 [DIO-902] , please.
# output 1330

----------
test: Toxicokinetics in the 28 day dog study of DIO-902 (with racemic ketoconazole group a); details: male, beagle, plasma, po, 2 mg/kg, Drug concentration in plasma, dogs, 2 mg/kg oral, day 28, M, 1 h
metric: concentration at 1 h (ng/mL)
Give the quantity in ng/mL, number only.

# input Recorded concentration at 1 h of CC(=O)N1CCN(c2ccc(OC[C@@H]3CO[C@@](Cn4ccnc4)(c4ccc(Cl)cc4Cl)O3)cc2)CC1 [DIO-902] , please.
# output 660

----------
experiment: Toxicokinetics of racemic ketoconazole in another 28-day dog study (b); settings: female, beagle, dog, plasma, po, 10 mg/kg, Drug concentration in plasma, dogs, study b, powder, 10 mg/kg oral, day 1, F, 0 h
metric: concentration at 0 h

# input Recorded concentration at 0 h of CC(=O)N1CCN(c2ccc(OCC3COC(Cn4ccnc4)(c4ccc(Cl)cc4Cl)O3)cc2)CC1 (racemic) [Racemic ketoconazole] , please.
# output < 250 ng/mL

----------
assay: Toxicokinetics of racemic ketoconazole in another 28-day dog study (b); settings: male, beagle, dog, plasma, po, 10 mg/kg, Drug concentration in plasma, dogs, study b, powder, 10 mg/kg oral, day 28, M, 0 h
metric: concentration at 0 h

# input Recorded concentration at 0 h of CC(=O)N1CCN(c2ccc(OCC3COC(Cn4ccnc4)(c4ccc(Cl)cc4Cl)O3)cc2)CC1 (racemic) [Racemic ketoconazole] , please.
# output < 250 ng/mL

----------
assay: Toxicokinetics of racemic ketoconazole in another 28-day dog study (b); details: male, beagle, dog, plasma, po, 10 mg/kg, AUC(0-12), dogs, study b, powder, 10 mg/kg oral, day 28, M; footnote: AUC data is for 0-24 h
metric: AUC(0-t) (ng·h/mL)
Give the quantity in ng·h/mL, number only.

# input Recorded AUC(0-t) of CC(=O)N1CCN(c2ccc(OCC3COC(Cn4ccnc4)(c4ccc(Cl)cc4Cl)O3)cc2)CC1 (racemic) [Racemic ketoconazole] , please.
# output 44200

----------
assay: Toxicokinetics of racemic ketoconazole in another 28-day dog study (b); settings: female, beagle, dog, plasma, po, 10 mg/kg, AUC(0-12), dogs, study b, powder, 10 mg/kg oral, day 1, F; footnote: AUC data is for 0-24 h
metric: AUC(0-t) (ng·h/mL)
Give the quantity in ng·h/mL, number only.

# input Recorded AUC(0-t) of CC(=O)N1CCN(c2ccc(OCC3COC(Cn4ccnc4)(c4ccc(Cl)cc4Cl)O3)cc2)CC1 (racemic) [Racemic ketoconazole] , please.
# output 6730

----------
test: Toxicokinetics of racemic ketoconazole in another 28-day dog study (b); conditions: male, beagle, dog, plasma, po, 10 mg/kg, Drug concentration in plasma, dogs, study b, powder, 10 mg/kg oral, day 28, M, 2 h
metric: concentration at 2 h
State the result as a value with its unit after it.

# input Recorded concentration at 2 h of CC(=O)N1CCN(c2ccc(OCC3COC(Cn4ccnc4)(c4ccc(Cl)cc4Cl)O3)cc2)CC1 (racemic) [Racemic ketoconazole] , please.
# output 8630 ng/mL

----------
assay: Toxicokinetics of racemic ketoconazole in another 28-day dog study (b); conditions: male, beagle, dog, plasma, po, 40 mg/kg, Drug concentration in plasma, dogs, study b, powder, 40 mg/kg oral, day 1, M, 0 h
metric: concentration at 0 h

# input Recorded concentration at 0 h of CC(=O)N1CCN(c2ccc(OCC3COC(Cn4ccnc4)(c4ccc(Cl)cc4Cl)O3)cc2)CC1 (racemic) [Racemic ketoconazole] , please.
# output < 250 ng/mL

----------
test: Toxicokinetics in the 28 day dog study of DIO-902 (with racemic ketoconazole group a); conditions: female, beagle, plasma, po, 6.5 mg/kg, Cmax, dogs, 6.5 mg/kg oral, day 1, F
metric: Cmax (ng/mL)
Give the quantity in ng/mL, number only.

# input Recorded Cmax of "CC(=O)N1CCN(c2ccc(OC[C@@H]3CO[C@@](Cn4ccnc4)(c4ccc(Cl)cc4Cl)O3)cc2)CC1" , please.
# output 2570

----------
experiment: Toxicokinetics in the 28 day dog study of DIO-902 (with racemic ketoconazole group a); conditions: female, beagle, plasma, po, 20 mg/kg, Drug concentration in plasma, dogs, 20 mg/kg oral, day 1, F, 1 h;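 further: beagle dogs dosed orally once daily within a 28-day GLP study, 3 animals per sex per group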
metric: concentration at 1 h

# input Recorded concentration at 1 h of CC(=O)N1CCN(c2ccc(OC[C@@H]3CO[C@@](Cn4ccnc4)(c4ccc(Cl)cc4Cl)O3)cc2)CC1 [DIO-902] , please.
# output < 250 ng/mL
